Biological target: T1, LRP6 E1E2 protein (human, UniProt O75581 20-630, limits assumed)
T1 construct: domain: E1E2
T1 sequence (looked up): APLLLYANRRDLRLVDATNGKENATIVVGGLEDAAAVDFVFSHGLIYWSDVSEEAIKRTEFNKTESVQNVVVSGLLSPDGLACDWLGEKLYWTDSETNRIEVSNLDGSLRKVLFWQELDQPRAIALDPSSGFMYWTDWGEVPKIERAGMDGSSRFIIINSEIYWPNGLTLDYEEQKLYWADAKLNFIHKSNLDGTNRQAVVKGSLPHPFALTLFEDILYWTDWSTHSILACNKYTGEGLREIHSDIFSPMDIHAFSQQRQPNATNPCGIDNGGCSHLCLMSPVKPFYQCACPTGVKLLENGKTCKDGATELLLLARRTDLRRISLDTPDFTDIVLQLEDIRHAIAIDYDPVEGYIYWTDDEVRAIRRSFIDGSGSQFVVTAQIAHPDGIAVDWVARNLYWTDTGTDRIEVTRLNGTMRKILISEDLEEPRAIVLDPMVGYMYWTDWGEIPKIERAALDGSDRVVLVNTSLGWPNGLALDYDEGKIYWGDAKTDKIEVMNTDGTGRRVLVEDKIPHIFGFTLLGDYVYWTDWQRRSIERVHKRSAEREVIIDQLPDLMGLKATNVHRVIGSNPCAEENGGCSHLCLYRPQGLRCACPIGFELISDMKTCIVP
Experiment: spot phage ELISA
measuredProperty: ELISA
Just the number.

[Q] May I ask what ELISA has been recorded for GCVNSVKRCKQDSDCLAGCVCSRGVNCG (designed binder) [LRP6_CKP13] ?
[A] 3.28

[Q] May I ask what ELISA has been recorded for GCASSNSIRQGWCKQDSDCLAGCVCGPKSNCG (designed binder) [LRP6_CKP10] ?
[A] 3.29

[Q] May I ask what ELISA has been recorded for GCMNHVKARRCKQDSDCLAGCVCGPNGFCG (designed binder) [LRP6_CKP3] ?
[A] 2.93

[Q] May I ask what ELISA has been recorded for GCRSGNTIRKRECKQDSDCLAGCVCGGPGGCG (designed binder) [LRP6_CKP9] ?
[A] 2.97

[Q] May I ask what ELISA has been recorded for GCGNKIRACKQDSDCLAGCVCRDRVGCG (designed binder) [LRP6_CKP21] ?
[A] 2.8

[Q] May I ask what ELISA has been recorded for GCVNRVRGCKQDSDCLAGCVCSGGRDCG (designed binder) [LRP6_CKP2] ?
[A] 3.41

[Q] May I ask what ELISA has been recorded for GCRSVNKICKQDSDCLAGCVCGSSRNCG (designed binder) [LRP6_CKP4] ?
[A] 2.82
